# protocolNotes: Water-solubility at pH2.0
# Type: physicochemical
# runConditions: aqueous medium (water) at pH 2.0, pH 2, simulated gastric fluid
The label depends only on solubility: satisfied if it is at least 8 µg/mL, not satisfied if it is smaller.

Examples with answers:
COC(=O)c1cc(N)c(Nc2ccc(C#N)cc2)cc1Oc1c(C)cc(CCC#N)cc1C :: not satisfied
N#CCCc1cc(Br)c(Oc2ccc(N)c(Nc3ccc(C#N)cc3)n2)c(Br)c1 :: not satisfied
Cc1cc(CCC#N)cc(C)c1Oc1cc(Nc2ccc(C#N)cc2)c(N)cc1CNC1CC1 :: satisfied

Query: Please tell me: is the compound Cc1cc(CCC#N)cc(C)c1Oc1cc(Nc2ccc(C#N)cc2)c(N)cc1CO at or over 8 µg/mL in terms of solubility?
Result: satisfied

Query: Request: COc1cc(CCC#N)cc(Br)c1Oc1ccc(N)c(Nc2ccc(C#N)cc2)n1 [Compound 26A]
Result: not satisfied

Query: Request: CNC(=O)c1cc(N)c(Nc2ccc(C#N)cc2)cc1Oc1c(C)cc(CCC#N)cc1C
Result: satisfied

* * *

# protocolNotes: TZM-bl cytotoxicity assay (XTT)
# Assay type: cell-based
# runConditions: human, TZM-bl cells, read-out: CC50, concentration effective to inhibit the growth of half of cells
# Method: The assay was carried out by reference to the document (Dang, Z, et al. J. Med. Chem. 2009, 52, 7887-7891). In particular, in a 96-well cell culture plate, solutions of Compounds 1-57 at different concentrations (100 μl) were mixed with an equivalent volume of TZM-bl cells (from National Institutes of Health (NIH)) (5×10^5/mL), and were incubated at 37° C. for 4 d. 50 μl of freshly prepared XTT solution (1 mg/mL) containing 0.02 μM PMS was added. Optical density at 450 nm was measured 4 h later.
parameterMeasured: CC50 at 4 d

Reference set, count: 5
Cc1cc(CCC#N)cc(C)c1Oc1cc(Nc2ccc(C#N)cc2)c(N)cc1C(=O)NN :: > 22.7 µM
Cc1cc(CCC#N)cc(C)c1Oc1cc(Nc2ccc(C#N)cc2)c(N)cc1C(F)(F)F :: > 7.1 µM
CCNC(=O)c1cc(N)c(Nc2ccc(C#N)cc2)cc1Oc1c(C)cc(CCC#N)cc1C :: > 5 µM
COc1cc(/C=C/C#N)cc(Br)c1Oc1ccc(N)c(Nc2ccc(C#N)cc2)n1 [Compound 26B] :: 21.3 µM
CCCc1cc(C)c(Oc2ccc(N)c(Nc3ccc(C#N)cc3)n2)c(C)c1 :: 16.4 µM

Value sought for every listed compound: CC50 at 4 d.
1. N#CCCc1cc(F)c(Oc2ccc(N)c(Nc3ccc(C#N)cc3)n2)c(F)c1
2. CC(=O)OCc1cc(N)c(Nc2ccc(C#N)cc2)cc1Oc1c(C)cc(CCC#N)cc1C
3. Cc1cc(CO)cc(C)c1Oc1cc(Nc2ccc(C#N)cc2)c(N)cc1CO

Result:
1. > 10.2 µM
2. > 5 µM
3. > 15.9 µM

* * *

Assign selectivity ratio at 2 days to each entry below.
# Tested on: NL4-3 virus (HIV, wild-type)
# protocolNotes: Anti-HIV activity assay (TZM-bl cell model), NL4-3 wild-type
# Assay type: cell-based
# runConditions: human, TZM-bl cells infected with HIV-1 NL4-3 virus; CC50 (TZM-bl) / EC50 (NL4-3); read-out: SI, selective index, ratio of toxic CC50 value to active EC50 value
Give bare numbers.

COc1cc(/C=C/C#N)cc(Br)c1Oc1ccc(N)c(Nc2ccc(C#N)cc2)n1 [Compound 26B] :: 1210

Field: next compound
Query: What value of measured selectivity ratio at 2 days is listed for Cc1cc(CCC#N)cc(C)c1Oc1cc(Nc2ccc(C#N)cc2)c(N)cc1CO ?
Result: 61000

* * *

# Tested on: NL4-3 virus (HIV, wild-type)
# protocolNotes: Anti-HIV activity assay (TZM-bl cell model), NL4-3 wild-type
# Format: cell-based
# runConditions: human, TZM-bl cells infected with HIV-1 NL4-3 virus; CC50 (TZM-bl) / EC50 (NL4-3); read-out: SI, selective index, ratio of toxic CC50 value to active EC50 value
# Method: The assay was carried out by reference to the document (Dang, Z, et al. J. Med. Chem. 2009, 52, 7887-7891). […] 2 days later, the culture medium was removed, 100 μl of Bright Glo reagent was added to each well, and Victor 2 luminometer was used to detect the […] of the cells.
Assign selectivity ratio at 2 days to each entry below.

Reference set, count: 9
COC(=O)CCc1cc(F)c(Oc2ccc(N)c(Nc3ccc(C#N)cc3)n2)c(F)c1 :: > 155
COCc1cc(N)c(Nc2ccc(C#N)cc2)cc1Oc1c(C)cc(CCC#N)cc1C :: > 2290
Cc1cc(CCC#N)cc(C)c1Oc1cc(Nc2ccc(C#N)cc2)c(N)cc1CN(C)C :: > 1830
CC(=O)OCc1cc(N)c(Nc2ccc(C#N)cc2)cc1Oc1c(C)cc(CCC#N)cc1C :: > 1520
CCCc1cc(C)c(Oc2ccc(N)c(Nc3ccc(C#N)cc3)n2)c(C)c1 :: 1120
Cc1cc(CO)cc(C)c1Oc1cc(Nc2ccc(C#N)cc2)c(N)cc1CO :: > 1590
N#CCCc1cc(F)c(Oc2ccc(N)c(Nc3ccc(C#N)cc3)n2)c(F)c1 :: > 3640
COC(=O)c1cc(N)c(Nc2ccc(C#N)cc2)cc1Oc1c(C)cc(CCC#N)cc1C :: > 5260
CCNC(=O)c1cc(N)c(Nc2ccc(C#N)cc2)cc1Oc1c(C)cc(CCC#N)cc1C :: > 1080

Query: What value of measured selectivity ratio at 2 days is listed for CC(=O)CCc1cc(F)c(Oc2ccc(N)c(Nc3ccc(C#N)cc3)n2)c(F)c1 ?
Result: > 2130

* * *

# Tested on: NL4-3 virus (HIV, wild-type)
# protocolNotes: Anti-HIV activity assay (TZM-bl cell model), NL4-3 wild-type
# Format: cell-based
# runConditions: human, TZM-bl cells infected with HIV-1 NL4-3 virus; CC50 (TZM-bl) / EC50 (NL4-3); read-out: SI, selective index, ratio of toxic CC50 value to active EC50 value
parameterMeasured: selectivity ratio at 2 days

Reference set, count: 2
Cc1cc(CCC#N)cc(C)c1Oc1cc(Nc2ccc(C#N)cc2)c(N)cc1CNC1CC1 :: > 9430
Cc1cc(CCC#N)cc(C)c1Oc1cc(Nc2ccc(C#N)cc2)c(N)cc1C(N)=O :: > 6760

Field: next compound
Query: // lookup selectivity ratio at 2 days | system=NL4-3 virus (HIV, wild-type) | key= Cc1cc(CCC#N)cc(C)c1Oc1cc(Nc2ccc(C#N)cc2)c(N)cc1N
Result: > 820
